Just for reference, PubChem BioAssay (NCATS) is where these values come from.

# Tested on: PA-1
# ASSAY INFO: Primary qHTS to identify gynecologic anti-cancer compounds using libraries of approved drugs and bioactive compounds (AID 1345084); note: % is set by controls: 0 for no effect and ±100 for the full control effect; nearly all actives have a fitted effect of over 55% in size
# PARTICULARS: Gynecologic cancer cell panel viability, ATPlite luminescence, 48 h; series mostly up to 57.5 µM
Inconclusive results are not listed. Activity calls are given as the source filed them. Calls come from the whole dose curve; as a rule, active = well fitted cell-killing curve with a large enough effect; inconclusive = small, poorly fitted or top-dose-only effect, or effect the other way; inactive = flat fitted curve, though single readings scatter. Where a SMILES comes first, the peptide text is derived from it. [ ]: non-standard residue; d: D form. PhLac = O=C(O)[CH](O)Cc1ccccc1; NMeV = CN[CH](C(=O)O)C(C)C

COMPOUND	activity change, negative = cytotoxicity
C=C(C(=O)O)[C@@H]1CC=C2CCC[C@H](C)[C@@]2(C)C1	inactive
CC1C/C=C/C=C\CCCCC(O)C/C=C/C(=O)O1 (stereo not given)	inactive
C[C@@H]1CC[C@]2(C(=O)O)CC[C@]3(C)C(=CCC4[C@]5(C)C(CC[C@]43C)C(C)(C)[C@@H](O)[C@H](O)[C@@H]5O)C2[C@]1(C)O (stereo not given in full)	inactive
CCCCN(CCCC)C(=O)CN1C[C@H](c2ccc3c(c2)OCO3)[C@@H](C(=O)O)[C@@H]1c1ccc(OC)cc1	inactive
CC[C@@H](c1ccc(F)c(F)c1)n1c(C(=O)OC)c(-c2ccno2)[nH]c1=S	inactive
O=C1NCc2nc3ccccc3c(=O)n2C1Cc1c[nH]c2ccccc12 (stereo not given)	inactive
C=CCc1ccc(O[C@@H]2O[C@H](CO)[C@@H](O)[C@H](O)[C@H]2O)c(OC)c1	inactive
COC1CC(OC2CCC3(C)C(=CCC4C3CCC3(C)C(C(C)O)CCC43O)C2)OC(C)C1OC1OC(C)C(OC2OC(COC3OC(COC4OC(CO)C(O)C(O)C4O)C(O)C(O)C3O)C(O)C(O)C2O)C(OC)C1O (stereo not given)	5.02% [at 11.6 µM] (inactive)
C=CC(C)(CC/C=C(\C)CC/C=C(\C)CC(O)/C=C(\C)C(=O)O)O[C@@H]1O[C@H](CO)[C@@H](O)[C@H](O)[C@H]1O[C@@H]1O[C@H](CO)[C@@H](O)[C@H](O)[C@H]1O (stereo not given in full)	inactive
CC[C@H](/C=C/[C@@H](C)[C@H]1CC[C@H]2[C@@H]3CC=C4C[C@@H](O)CC[C@]4(C)[C@H]3CC[C@]12C)C(C)C	2.16% [at 6.55 µM] (inactive)
CCC(C)/C=C(C)/C=C/C1=CC2=C(Cl)C(=O)C(C)(OC(C)=O)C(=O)C2=CN1C1CCCCN(C(CCC(N)=O)C(=O)O)C1=O (stereo not given)	inactive
NS(=O)(=O)NCCNc1nonc1C(=Nc1ccc(F)c(Br)c1)NO	inactive
CC/C=C/CC1=C(CCCCCCCC(=O)O)CCC1=O	inactive
CC(=O)c1c(C)cc(O)cc1O[C@@H]1O[C@H](CO)[C@@H](O)[C@H](O)[C@H]1O	inactive
CC1=C2C3OC(=O)C(C)C3(O)CCC2(C)CCC1=O (stereo not given)	inactive
CN[C@@H]1[C@@H](O)[C@@H](O[C@@H]2[C@@H](O)[C@H](O[C@H]3O[C@H](CN)[C@@H](O)[C@H](O)[C@H]3O)[C@@H](N)C[C@H]2NC(=O)[C@@H](O)CN)OC[C@]1(C)O	inactive
C=C1[C@@H]2CC[C@@]3(C)[C@H](c4ccoc4)OC(=O)C[C@]13O[C@H]1CC(=O)C(C)(C)[C@H](CC(=O)OC)[C@]12C	inactive
COc1c(C)c2c(c(O)c1C/C=C(\C)CC/C=C(\C)CCC(=O)O)C(=O)OC2	inactive
CC(=O)N(O)CCCCCN1C(=O)CCC1=O	inactive
Cc1cn2c(N)c(Cl)cc(C(=O)NCC3CCN(CC(C)C)CC3)c2n1	inactive
C=C1C[C@@]23CC[C@@H]4[C@](C)(C(=O)O)CCC[C@@]4(C)C2=CC[C@H]1C3	inactive
O=C(/C=C/c1ccc(O)cc1)OC[C@H]1O[C@@H](OC(=O)/C=C/c2ccccc2)[C@H](O)[C@@H](O)[C@@H]1O	inactive
CC1(C)CCC2(C(=O)OC3OC(COC4OC(CO)C(O)C(O)C4O)C(O)C(O)C3O)CCC3(C)C(=CCC4C5(C)CCC(O)C(C)(C(=O)O)C5CCC43C)C2C1O (stereo not given)	-2.93% [at 11.6 µM] (inactive)
CC(C)C(C(=O)N1CCCC1C(=O)O)N(C)C(=O)C(O)Cc1ccccc1 (stereo not given) (H-[PhLac]-[NMeV]-Pro-OH; configuration not given here)	inactive
CN1C(=O)c2ccccc2-n2c(nc3ccccc3c2=O)/C1=C/c1ccccc1	inactive
CC1OC(OC2C(CO)OC(OCC3OC(OC(=O)C45CCC(C)(C)CC4C4=CCC6C7(C)CCC(OC8OC(C(=O)O)C(O)C(OC9OC(CO)C(O)C(O)C9O)C8O)C(C)(C)C7CCC6(C)C4(C)CC5)C(O)C(O)C3O)C(O)C2O)C(O)C(O)C1O (stereo not given)	14.3% [at 6.55 µM] (inactive)
O=C1[C@H](O[C@@H]2O[C@H](CO)[C@@H](O)[C@H](O)[C@H]2O)Oc2ccccc2N1O	inactive
CCS(=O)(=O)N1CCC([C@@H](C)n2c(C)c(C(=O)NCc3c(OC)cc(C)[nH]c3=O)c3ccccc32)CC1	inactive
CC1CCC2(NC1)OC1C(=O)C3C4CCC5CC(O[C@@H]6O[C@H](CO)[C@@H](O)[C@H](O)[C@H]6O[C@@H]6O[C@@H](C)[C@H](O)[C@@H](O)[C@H]6O)CCC5(C)C4CCC3(C)C1C2C (stereo not given in full)	inactive
COC(=O)C[C@@H]1C(C(=O)O)=CO[C@@H](O[C@@H]2O[C@H](CO)[C@@H](O)[C@H](O)[C@H]2O)/C1=C\COC(=O)/C=C\c1ccccc1	inactive

---

# TARGET OR SYSTEM: Phenylethanolamine N-methyltransferase (Homo sapiens) (UniProt P11086)
# Sequence (P11086 whole entry, looked up): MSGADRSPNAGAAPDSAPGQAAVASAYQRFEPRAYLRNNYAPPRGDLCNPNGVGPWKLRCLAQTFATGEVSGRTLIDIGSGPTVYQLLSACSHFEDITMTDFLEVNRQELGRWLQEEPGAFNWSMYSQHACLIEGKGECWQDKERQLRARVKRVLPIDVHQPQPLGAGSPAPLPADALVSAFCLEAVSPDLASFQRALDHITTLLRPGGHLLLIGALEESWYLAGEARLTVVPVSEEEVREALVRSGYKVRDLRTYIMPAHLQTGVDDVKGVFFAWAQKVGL
# ASSAY INFO: Confirmatory Screen for Target Class Profiling of Small Molecule Inhibitors of Methyltransferases (AID 1745852)
# PARTICULARS: MTase-Glo luminescence, SAH detection, recombinant enzyme; measured here: PNMT max response; stronger effect = lower value
MEASURED PARAMETER: activity (%)

In [3]: df
Out[3]:
                                   compound  unit_text  endpoint_value
0  OC1COC(OCC2OC(OCCc3ccccc3)C(O)C(O)C2O)C(O)C1O (centres undefined)          %               0
1  CCc1nc(C(N)=O)c(Nc2ccc(N3CCC(N4CCN(C)CC4)CC3)c(OC)c2)nc1NC1CCOCC1          %           -59.8
2  COc1cc(C2Oc3c(OC)cc(CCCO[C@@H]4O[C@H](CO)[C@@H](O)[C@H](O)[C@H]4O)cc3C2CO)ccc1O (some centres undefined)          %            4.57
3  CNC1CCN(C(Cc2cccc(-c3ccncc3)c2)C(=O)c2sc3c(F)ccc(F)c3c2Cl)CC1 (centres undefined)          %           -11.9

---

# Tested on: Es-2
# ASSAY INFO: Primary qHTS to identify gynecologic anti-cancer compounds using libraries of approved drugs and bioactive compounds (AID 1345084); note: % is set by controls: 0 for no effect and ±100 for the full control effect; nearly all actives have a fitted effect of over 55% in size
# PARTICULARS: Gynecologic cancer cell panel viability, ATPlite luminescence, 48 h; series mostly up to 57.5 µM
Results filed as inconclusive are left out. The source made the active and inactive calls. The call rests on the fitted dose curve; in most records, active means well fitted cell-killing curve with a large enough effect; inconclusive means small, poorly fitted or top-dose-only effect, or effect the other way; inactive means flat fitted curve, though single readings scatter. Where a SMILES comes first, the peptide text is derived from it. Bridges are numbered along the chain shown (N, C = ends). [ ]: non-standard residue; d: D form. The star is where a group is joined. X1 = CCC(C)C(N)C1=NC(C(=O)*)CS1; dOrn = NCCC[C@@H](N)C(=O)O
MEASURED PARAMETER: activity change, negative = cytotoxicity

MOLECULE	MEASURED PARAMETER	ENDPOINT VALUE
Cc1ccc2c(c1)C=Cc1cc(C)ccc1C2c1cn(Cc2ccc(C(=O)Nc3nn[nH]n3)o2)c(=O)[nH]c1=S	activity change, negative = cytotoxicity	inactive
COC(=O)[C@@]1(O)C=CC[C@@H]2[C@@]3(C)C[C@@H](c4ccoc4)OC(=O)[C@H]3CC[C@]21C	activity change, negative = cytotoxicity	inactive
NCCCC[C@H](NC(=O)[C@@H]1Cc2ccccc2CN1C(=O)CCC(=O)c1ccccc1)C(=O)NCC(c1ccccc1)c1ccccc1	activity change, negative = cytotoxicity	inactive
CC(C)N(C[C@H]1O[C@@H](n2cnc3c(N)ncnc32)[C@H](O)[C@@H]1O)C1CC(CCc2nc3ccc(C(C)(C)C)cc3[nH]2)C1 (stereo not given in full)	activity change, negative = cytotoxicity	inactive
O=C(c1ccc(NS(=O)(=O)c2cccc3cccnc23)cc1)N1CCN(CC2CC2)CC1	activity change, negative = cytotoxicity	inactive
CC12CCC3c4ccc(O)cc4CCC3C1CCC2OC1OC(C(=O)O)C(O)C(O)C1O (stereo not given)	activity change, negative = cytotoxicity	inactive
Cc1ccc(Sc2cncc3sc(C(N)=O)cc23)cc1	activity change, negative = cytotoxicity	inactive
CCC(C)C(N)C1=NC(C(=O)N[C@@H](CC(C)C)C(=O)N[C@H](CCC(=O)O)C(=O)N[C@H](C(=O)N[C@H]2CCCCNC(=O)[C@H](CC(N)=O)NC(=O)[C@@H](CC(=O)O)NC(=O)[C@H](Cc3cnc[nH]3)NC(=O)[C@@H](Cc3ccccc3)NC(=O)[C@H]([C@@H](C)CC)NC(=O)[C@@H](CCCN)NC2=O)[C@@H](C)CC)CS1 (stereo not given in full) (X1-L[dE]IK[dOrn]I[dF]H[dD]N; lactam 4-C)	activity change, negative = cytotoxicity	inactive
C=C[C@](C)(CC/C=C(\C)C(=O)O)O[C@@H]1OC[C@H](O)[C@H](O)[C@H]1O	activity change, negative = cytotoxicity	inactive
C[C@H]1[C@H](C)CC[C@]2(C(=O)O)CC[C@]3(C(=O)O)C(=CCC4[C@@]5(C)CC[C@H](O[C@@H]6O[C@H](C)[C@@H](O)[C@H](O)[C@H]6O)C(C)(C)C5CC[C@]43C)[C@H]12 (stereo not given in full)	activity change, negative = cytotoxicity	inactive
CC(=O)O[C@@H]1C[C@@]23C[C@@]24CC[C@H](OC2OC[C@@H](O)[C@H](O)[C@H]2O)C(C)(C)[C@@H]4CC[C@H]3[C@]2(C)CC3OC4(C[C@@H](C)C3[C@@]12C)OCC1(C)OC14 (stereo not given in full)	activity change, negative = cytotoxicity	inactive
C[C@]12CCC[C@](C)(C(=O)O)C1CCC13C=C(CO)C(CCC12)C3 (stereo not given in full)	activity change, negative = cytotoxicity	inactive
CC(=O)O[C@H]1[C@H](Oc2ccccc2COC(=O)C2(O)C=CCCC2=O)O[C@H](CO)[C@@H](O)[C@@H]1O (stereo not given in full)	activity change, negative = cytotoxicity	inactive
COc1cc(/C=C/C(=O)OC[C@H]2O[C@H](O[C@]3(CO)O[C@H](CO)[C@@H](O)[C@@H]3O)[C@H](O)[C@@H](O)[C@@H]2O)cc(OC)c1O	activity change, negative = cytotoxicity	inactive
CCc1c(CC(N)=O)c2cc(OCCCP(=O)(O)O)ccc2n1Cc1ccccc1	activity change, negative = cytotoxicity	inactive
C/C(=C/CCC(CO)C1CCC2(C)C3CCC4C(C)(C)C(OC5OC(CO)C(O)C(O)C5O)CC(O)C45CC35CCC12C)COC1OC(CO)C(O)C(O)C1O (stereo not given)	activity change, negative = cytotoxicity	inactive
C=C1CC[C@H]2[C@@](C)(CCC[C@@]2(C)C(=O)O)[C@@H]1CCC(C)CCO (stereo not given in full)	activity change, negative = cytotoxicity	inactive
C[C@@H]1O[C@@H](OC[C@H]2O[C@@H](OCCc3ccccc3)[C@H](O)[C@@H](O)[C@@H]2O)[C@H](O)[C@H](O)[C@H]1O	activity change, negative = cytotoxicity	inactive
C=C[C@H]1[C@H](O[C@@H]2O[C@H](CO[C@@H]3OC[C@](O)(CO)[C@H]3O)[C@@H](O)[C@H](O)[C@H]2O)OC=C2C(=O)OCC[C@H]21	activity change, negative = cytotoxicity	inactive
Cc1c(CN(C)C(=O)/C=C/c2cnc3c(c2)CCC(=O)N3)oc2ccccc12	activity change, negative = cytotoxicity	inactive
CC(C(=O)O)C1CCC2(C)C3C(=O)C=C4C(CCC(=O)C4(C)C)C3(C)CCC12C (stereo not given)	activity change, negative = cytotoxicity	inactive
CC1(C)CCCC2(C)C(CO)C3CCC2C31 (stereo not given)	activity change, negative = cytotoxicity	inactive
C1CCN2CC3C[C@@H](CN4CCCC[C@@H]34)[C@H]2C1	activity change, negative = cytotoxicity	inactive
CC(C)C1=CC2=CCC3[C@](C)(CCC[C@@]3(C)C(=O)O)C2CC1O (stereo not given in full)	activity change, negative = cytotoxicity	inactive
C/C(=C\CO)CC/C=C(\C)C(=O)O[C@H]1[C@H](OC2OC=C(C(=O)O)C3CCC(C)(O)C23)O[C@H](CO)[C@@H](O)[C@@H]1O (stereo not given in full)	activity change, negative = cytotoxicity	inactive
CCN(c1cc(C#CCN2CCOCC2)cc(C(=O)NCc2c(C)cc(C)[nH]c2=O)c1C)C1CCC(N(C)CCOC)CC1 (stereo not given)	activity change, negative = cytotoxicity	inactive
O=C(CCCCc1ccc2ccccc2c1)C(F)(F)F	activity change, negative = cytotoxicity	inactive
Cc1cc(Nc2ncc(Cl)c(Nc3ccccc3S(=O)(=O)C(C)C)n2)c(OC(C)C)cc1C1CCNCC1	activity change, negative = cytotoxicity	inactive
COCCN(C)Cc1ccc2nc3sc(C(=O)N(C)C4CCCCC4)cn3c2c1	activity change, negative = cytotoxicity	inactive
CC1(CCC(=O)O)C(=O)C=CC23CC4CC(OC4(C)C2O)C13 (stereo not given)	activity change, negative = cytotoxicity	inactive
